Assay type: in vitro ADME
details: bovine, serum

[
  {
    "compound": "C/C=C/C[C@@H](C)[C@@H](OC(=O)CN(C)C(=O)[C@H](CCCC[N+](C)(C)C)NC(=O)OC(C)OC(C)=O)[C@H]1C(=O)N[C@@H](CC)C(=O)N(C)CC(=O)N(C)[C@@H](CC(C)C)C(=O)N[C@@H](C(C)C)C(=O)N(C)[C@@H](CC(C)C)C(=O)N[C@@H](C)C(=O)N[C@H](C)C(=O)N(C)[C@@H](CC(C)C)C(=O)N(C)[C@@H](CC(C)C)C(=O)N(C)[C@@H](C(C)C)C(=O)N1C (some centres unmarked)",
    "half-life": "220 min"
  },
  {
    "compound": "C/C=C/C[C@@H](C)[C@@H](OC(=O)CN(C)C(=O)[C@H](COP(=O)(O)O)NC(=O)OC(C)OC(C)=O)[C@H]1C(=O)N[C@@H](CC)C(=O)N(C)CC(=O)N(C)[C@@H](CC(C)C)C(=O)N[C@@H](C(C)C)C(=O)N(C)[C@@H](CC(C)C)C(=O)N[C@@H](C)C(=O)N[C@H](C)C(=O)N(C)[C@@H](CC(C)C)C(=O)N(C)[C@@H](CC(C)C)C(=O)N(C)[C@@H](C(C)C)C(=O)N1C (some centres unmarked)",
    "half-life": "210 min"
  }
]

---

procedure_summary: Water-solubility by visual examination in 67 mM Sorensen phosphate buffers
Format: physicochemical
details: 67 mM Sorensen phosphate buffer, ambient temperature, pH 7
result_type: solubility

[
  {
    "compound": "C/C=C/C[C@@H](C)[C@@H](OC(=O)CN(C)C(=O)[C@H](COP(=O)(O)O)NC(=O)OC(C)OC(C)=O)[C@H]1C(=O)N[C@@H](CC)C(=O)N(C)CC(=O)N(C)[C@@H](CC(C)C)C(=O)N[C@@H](C(C)C)C(=O)N(C)[C@@H](CC(C)C)C(=O)N[C@@H](C)C(=O)N[C@H](C)C(=O)N(C)[C@@H](CC(C)C)C(=O)N(C)[C@@H](CC(C)C)C(=O)N(C)[C@@H](C(C)C)C(=O)N1C (stereo partly shown) [(XVI)]",
    "result": "> 20 mM"
  }
]

---

procedure_summary: in vitro
Assay type: in vitro ADME
details: rabbit, cerebrospinal or other body fluid, pH 7
result_type: metabolised at 0.05 h, 0.76 % (weight/volume) Cyclosporin A equivalent (%)

[
  {
    "molecule": "C/C=C/C[C@@H](C)[C@@H](OC(=O)CN(C)C(=O)[C@H](CCCC[N+](C)(C)C)NC(=O)OC(C)OC(C)=O)[C@H]1C(=O)N[C@@H](CC)C(=O)N(C)CC(=O)N(C)[C@@H](CC(C)C)C(=O)N[C@@H](C(C)C)C(=O)N(C)[C@@H](CC(C)C)C(=O)N[C@@H](C)C(=O)N[C@H](C)C(=O)N(C)[C@@H](CC(C)C)C(=O)N(C)[C@@H](CC(C)C)C(=O)N(C)[C@@H](C(C)C)C(=O)N1C (stereo partly shown)",
    "quantitative_readout": 3
  }
]

---

details: rat, in vivo, iv, 10 mg/kg, T1/21 (initial half-life time)

[
  {
    "molecule": "C/C=C/C[C@@H](C)[C@@H](OC(=O)CN(C)C(=O)[C@H](CCCC[N+](C)(C)C)NC(=O)OC(C)OC(C)=O)[C@H]1C(=O)N[C@@H](CC)C(=O)N(C)CC(=O)N(C)[C@@H](CC(C)C)C(=O)N[C@@H](C(C)C)C(=O)N(C)[C@@H](CC(C)C)C(=O)N[C@@H](C)C(=O)N[C@H](C)C(=O)N(C)[C@@H](CC(C)C)C(=O)N(C)[C@@H](CC(C)C)C(=O)N(C)[C@@H](C(C)C)C(=O)N1C (some centres unmarked)",
    "half-life (min)": 33
  },
  {
    "molecule": "C/C=C/C[C@@H](C)[C@@H](OC(=O)CN(C)C(=O)[C@H](COP(=O)(O)O)NC(=O)OC(C)OC(C)=O)[C@H]1C(=O)N[C@@H](CC)C(=O)N(C)CC(=O)N(C)[C@@H](CC(C)C)C(=O)N[C@@H](C(C)C)C(=O)N(C)[C@@H](CC(C)C)C(=O)N[C@@H](C)C(=O)N[C@H](C)C(=O)N(C)[C@@H](CC(C)C)C(=O)N(C)[C@@H](CC(C)C)C(=O)N(C)[C@@H](C(C)C)C(=O)N1C (some centres unmarked)",
    "half-life (min)": 12
  }
]

---

procedure_summary: Water-solubility by visual examination in 67 mM Sorensen phosphate buffers
Assay type: physicochemical
details: 67 mM Sorensen phosphate buffer, ambient temperature, pH 8; read-out: Water-solubility at pH = 8

[
  {
    "compound": "C/C=C/C[C@@H](C)[C@@H](OC(=O)CN(C)C(=O)[C@H](COP(=O)(O)O)NC(=O)OC(C)OC(C)=O)[C@H]1C(=O)N[C@@H](CC)C(=O)N(C)CC(=O)N(C)[C@@H](CC(C)C)C(=O)N[C@@H](C(C)C)C(=O)N(C)[C@@H](CC(C)C)C(=O)N[C@@H](C)C(=O)N[C@H](C)C(=O)N(C)[C@@H](CC(C)C)C(=O)N(C)[C@@H](CC(C)C)C(=O)N(C)[C@@H](C(C)C)C(=O)N1C (stereo partly shown)",
    "solubility": "> 20 mM"
  }
]

---

procedure_summary: Water-solubility by visual examination in 67 mM Sorensen phosphate buffers
Type: physicochemical
details: 67 mM Sorensen phosphate buffer, ambient temperature, pH 5

[
  {
    "compound": "C/C=C/C[C@@H](C)[C@@H](OC(=O)CN(C)C(=O)[C@H](COP(=O)(O)O)NC(=O)OC(C)OC(C)=O)[C@H]1C(=O)N[C@@H](CC)C(=O)N(C)CC(=O)N(C)[C@@H](CC(C)C)C(=O)N[C@@H](C(C)C)C(=O)N(C)[C@@H](CC(C)C)C(=O)N[C@@H](C)C(=O)N[C@H](C)C(=O)N(C)[C@@H](CC(C)C)C(=O)N(C)[C@@H](CC(C)C)C(=O)N(C)[C@@H](C(C)C)C(=O)N1C (stereo partly shown)",
    "solubility": "> 20 mM"
  }
]

---

details: rat, in vivo, iv, 10 mg/kg

[
  {
    "compound": "C/C=C/C[C@@H](C)[C@@H](OC(=O)CN(C)C(=O)[C@H](COP(=O)(O)O)NC(=O)OC(C)OC(C)=O)[C@H]1C(=O)N[C@@H](CC)C(=O)N(C)CC(=O)N(C)[C@@H](CC(C)C)C(=O)N[C@@H](C(C)C)C(=O)N(C)[C@@H](CC(C)C)C(=O)N[C@@H](C)C(=O)N[C@H](C)C(=O)N(C)[C@@H](CC(C)C)C(=O)N(C)[C@@H](CC(C)C)C(=O)N(C)[C@@H](C(C)C)C(=O)N1C (some centres unmarked)",
    "units_symbol": "ng·h/mL",
    "AUC(0-inf)": 44700
  },
  {
    "compound": "C/C=C/C[C@@H](C)[C@@H](OC(=O)CN(C)C(=O)[C@H](CCCC[N+](C)(C)C)NC(=O)OC(C)OC(C)=O)[C@H]1C(=O)N[C@@H](CC)C(=O)N(C)CC(=O)N(C)[C@@H](CC(C)C)C(=O)N[C@@H](C(C)C)C(=O)N(C)[C@@H](CC(C)C)C(=O)N[C@@H](C)C(=O)N[C@H](C)C(=O)N(C)[C@@H](CC(C)C)C(=O)N(C)[C@@H](CC(C)C)C(=O)N(C)[C@@H](C(C)C)C(=O)N1C (some centres unmarked)",
    "units_symbol": "ng·h/mL",
    "AUC(0-inf)": 66600
  }
]
